Cited source for all entries: a protein production outcome set (Wang et al. 2014)

- Assay method text: label from the status in PepcDB records

Sequence text	protein production
MPKLSVIVPTFNRQVLLEKAIKSIQNQDFKDLEIIVSDDNSSDDTKSVVQNLQKDDDRIKYFLNQNYKQGPNGNKNNGLDQASGEFVTFLDDDDELLSGALSTLMQKANEGYAHVFGNCLIEKEGNLSKEFSGKGLEKDSEISKKDFLMAKFSGEFFSVFKKSLLENKRFNEEFYGNEATLWVNLYKEKSFYIHKAFRIYRIFRQDSVTLGASKNAYRVYLGYLELAKILENELRMSKDKDYKKTCASYYKMAAYYAKLAKNYKALYKCLFKSLSIKINAPALILLILSIIPNNMIEKLSKIRVALCKN	failed
MKKTLILGATPETNRYAYLAAERLKSHGHEFIPVGRKKGEVLGKTIINERPVIEGVDTVTLYINPQNQLSEYNYILSLKPKRVIFNPGTENEELEEILSENGIEPVIGCTLVMLSAGT	failed
